# assay.name: AUC (0 to infinity) in Sprague-Dawley rat at 3 mg/kg, iv administered via foot dorsal vein by LC-MS/MS analysis
# Assay type: ADME, organism-based
# Parameters: dose 3 mg/kg, route intravenous, time infinity
# condition: in vivo
observation.type: AUC(0-inf) (ng·h/mL)
All answers are understood in ng·h/mL, so give the number only.

Asked: Please report AUC(0-inf) for the following molecule: CCCCCCOc1ccc(N(CC(F)(F)F)S(=O)(=O)[C@H]2C[C@H]3O[C@@H]2C(c2ccc(O)cc2)=C3c2ccc(O)cc2)cc1 (relative stereo)
Given back: 529

* * *

# assay.target: Estrogen receptor beta (Homo sapiens)
# assay.name: Binding affinity to ERbeta (unknown origin) by competitive fluorometric receptor binding assay relative to estradiol
Recorded relative binding affinity (RBA) by entry
Just the number, please, no unit after it.

>  <compound>
CCCCCCOc1ccc(C2=C(c3ccc(O)cc3)[C@H]3C[C@H](S(=O)(=O)N(CC(F)(F)F)c4ccc(Cl)cc4)[C@@H]2O3)cc1 (relative stereo)

>  <relative binding affinity (RBA)>
0.04

$$$$
>  <compound>
CCCCCCOc1ccc(C2=C(c3ccc(O)cc3)[C@H]3O[C@@H]2C[C@@H]3S(=O)(=O)N(CC(F)(F)F)c2ccc(OC)cc2)cc1

>  <relative binding affinity (RBA)>
0.08

$$$$

# context switch: different compound, same relative binding affinity (RBA)
Asked: Please report relative binding affinity (RBA) for the following compound: CCCCCCCCCCCCOc1ccc(C2=C(c3ccc(O)cc3)[C@H]3C[C@H](S(=O)(=O)N(CC(F)(F)F)c4ccc(OC)cc4)[C@@H]2O3)cc1 (relative stereo)
Given back: 0.15

* * *

# assay.target: UniProt Q92731
# Sequence (Q92731 whole entry): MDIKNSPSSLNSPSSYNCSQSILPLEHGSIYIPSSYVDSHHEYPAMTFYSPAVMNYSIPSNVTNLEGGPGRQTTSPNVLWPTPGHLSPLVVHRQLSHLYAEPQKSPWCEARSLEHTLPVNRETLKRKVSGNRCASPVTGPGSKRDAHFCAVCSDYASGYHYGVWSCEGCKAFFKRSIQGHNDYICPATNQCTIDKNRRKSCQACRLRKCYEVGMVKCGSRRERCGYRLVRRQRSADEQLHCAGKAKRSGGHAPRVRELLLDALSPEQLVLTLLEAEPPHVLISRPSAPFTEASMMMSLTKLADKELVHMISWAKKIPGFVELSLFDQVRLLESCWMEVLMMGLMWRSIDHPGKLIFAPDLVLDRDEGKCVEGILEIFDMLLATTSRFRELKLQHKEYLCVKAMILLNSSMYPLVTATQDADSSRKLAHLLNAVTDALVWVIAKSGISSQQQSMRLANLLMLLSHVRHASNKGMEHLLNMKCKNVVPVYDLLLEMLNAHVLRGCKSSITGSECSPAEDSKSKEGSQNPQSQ
# assay.name: Binding affinity to ERbeta (unknown origin) by competitive fluorometric receptor binding assay relative to estradiol
Recorded relative binding affinity (RBA) by entry
Just the number, please, no unit after it.

>  <compound>
CCCCCCCCOc1ccc(C2=C(c3ccc(O)cc3)[C@H]3C[C@H](S(=O)(=O)N(CC(F)(F)F)c4ccc(OC)cc4)[C@@H]2O3)cc1 (relative stereo)

>  <endpoint.value>
0.32

$$$$
>  <compound>
CCCCOc1ccc(C2=C(c3ccc(O)cc3)[C@H]3O[C@@H]2C[C@@H]3S(=O)(=O)N(CC(F)(F)F)c2ccc(OC)cc2)cc1 (relative stereo)

>  <endpoint.value>
0.27

$$$$

# context switch: different compound, same relative binding affinity (RBA)
Asked: Please report relative binding affinity (RBA) for the following compound: CCCCCOc1ccc(C2=C(c3ccc(O)cc3)[C@H]3O[C@@H]2C[C@@H]3S(=O)(=O)N(CC(F)(F)F)c2ccc(OC)cc2)cc1 (relative stereo)
Given back: 0.24

* * *

# assay.name: Therapeutic index, ratio of IC50 for cytotoxicity against human MCF10A cells to IC50 for antiproliferative activity against human MCF7 cells
# Format: toxicity, cell-based
# condition: read-out: Ratio IC50
Recorded selectivity ratio by entry

The cases that follow already have their selectivity ratio on record.
>  <compound>
CCCCCCCCCCOc1ccc(C2=C(c3ccc(O)cc3)[C@H]3O[C@@H]2C[C@@H]3S(=O)(=O)N(CC(F)(F)F)c2ccc(OC)cc2)cc1 (relative stereo)

>  <observation.type>
selectivity ratio

>  <endpoint.value>
> 3.9

$$$$
>  <compound>
CCCCCCCCCCCCOc1ccc(C2=C(c3ccc(O)cc3)[C@H]3O[C@@H]2C[C@@H]3S(=O)(=O)N(CC(F)(F)F)c2ccc(OC)cc2)cc1 (relative stereo)

>  <observation.type>
selectivity ratio

>  <endpoint.value>
> 1.1

$$$$
>  <compound>
CCCCCCCCCCOc1ccc(C2=C(c3ccc(O)cc3)[C@H]3C[C@H](S(=O)(=O)N(CC(F)(F)F)c4ccc(Cl)cc4)[C@@H]2O3)cc1 (relative stereo)

>  <observation.type>
selectivity ratio

>  <endpoint.value>
> 1.9

$$$$
>  <compound>
CCCCCCOc1ccc(C2=C(c3ccc(O)cc3)[C@H]3O[C@@H]2C[C@@H]3S(=O)(=O)N(CC(F)(F)F)c2ccc(Cl)cc2)cc1 (relative stereo)

>  <observation.type>
selectivity ratio

>  <endpoint.value>
28.7

$$$$
>  <compound>
CCCCOc1ccc(C2=C(c3ccc(O)cc3)[C@H]3C[C@H](S(=O)(=O)N(CC)c4ccccc4)[C@@H]2O3)cc1 (relative stereo)

>  <observation.type>
selectivity ratio

>  <endpoint.value>
17.9

$$$$
>  <compound>
CCCCCCCCOc1ccc(C2=C(c3ccc(O)cc3)[C@H]3C[C@H](S(=O)(=O)N(CC(F)(F)F)c4ccc(OC)cc4)[C@@H]2O3)cc1 (relative stereo)

>  <observation.type>
selectivity ratio

>  <endpoint.value>
> 45.2

$$$$

Asked: Please report selectivity ratio for the following compound: CCCCCCOc1ccc(C2=C(c3ccc(O)cc3)[C@H]3O[C@@H]2C[C@@H]3S(=O)(=O)N(CC)c2ccccc2)cc1 (relative stereo)
Given back: 43.9

Asked: Please report selectivity ratio for the following compound: CCCCCCOc1ccc(C2=C(c3ccc(O)cc3)[C@H]3C[C@H](S(=O)(=O)N(CC)c4ccccc4)[C@@H]2O3)cc1 (relative stereo)
Given back: > 28.9

Asked: Please report selectivity ratio for the following compound: CCCCCCCCCCOc1ccc(C2=C(c3ccc(O)cc3)[C@H]3O[C@@H]2C[C@@H]3S(=O)(=O)N(CC(F)(F)F)c2ccc(Cl)cc2)cc1 (relative stereo)
Given back: > 4.7

Asked: Please report selectivity ratio for the following compound: CCCCCCCCCCOc1ccc(C2=C(c3ccc(O)cc3)[C@H]3C[C@H](S(=O)(=O)N(CC(F)(F)F)c4ccc(OC)cc4)[C@@H]2O3)cc1 (relative stereo)
Given back: > 3.1
